Molecular target: T1, CTLA4-Fc (Fitzgerald, #30R-CD152) (human, UniProt P16410 38-152)
T1 construct: Bought; also called human CTLA-4 (Fitzgerald); biotinylated-CTLA4; not shown: Fc part of the bought fusion, not described
T1 sequence (P16410 38-152 limits assumed): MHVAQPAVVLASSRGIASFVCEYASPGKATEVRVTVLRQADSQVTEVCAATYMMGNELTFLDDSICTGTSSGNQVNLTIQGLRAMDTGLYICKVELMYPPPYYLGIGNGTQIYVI
Test: SPR (Biacore), immobilised CTLA4-Fc
measure: kon (M⁻¹ s⁻¹)
Lab book: enter the figure in M⁻¹ s⁻¹, no units written.

Asked: Param item = CD86 mutant H79A (Peach et al.) (ligand, also called Prior Art) APLKIQAYFNETADLPCQFANSQNQSLSELVVFWQDQENLVLNEVYLGKEKFDSVASKYMGRTSFDSDSWTLRLHNLQIKDKGLYQCIIHHKKPTGMIRIHQMNSELSVLA ; retrieve measured kon.
Given back: 340000

Asked: Note, next up: CD86 mutant 1040 (ligand, Variant of the CD86 extracellular domain) APLKIQAYFNETADLPCQFANSQNLSLSELVVFWQDQENLVLNEVYLGKERFDSVDSKYMGRTSFDSDSWTLRLHNLQIKDKGRYQCIIHHKKPTGMINIHQMNSELSVLA
Given back: 1e+06

Asked: Note, next up: CD86 mutant 1041 (ligand, Variant of the CD86 extracellular domain) APLKIQAYLNETADLPCQFANSQNLSLSELVVFWQDQENLVLNEVYLGKEKFDSVDSKYMGRTSFDSDSWTLRLHNLQIKDKGIYQCIIHHKKPTGLVKIHEMNSELSVLA
Given back: 700000

Asked: Note, next up: CD86 mutant 1044 (ligand, Variant of the CD86 extracellular domain) APLKIQAYFNETADLPCQFANSQNLTLSELVVFWQDQENLVLNEVYLGKEKFDSVSSKYMGRTSFDSDSWTLRLHNLQIKDKGIYQCIIHHKKPTGMIKIHEMSSELSVLA
Given back: 1.1e+06

Asked: Note, next up: CD86 mutant 1046 (ligand, Variant of the CD86 extracellular domain) APLKIQAYFNETADLPCQFANSQNQSLSELVVFWQDQENLVLNEVYLGKEKFDSVDSKYMGRTSFDSDSWTLRLHNLQIEDKGIYQCIIHHKKPSGMVKIHQMDSELSVLA
Given back: 1.4e+06

Asked: Note, next up: CD86 mutant 1038 (ligand, Variant of the CD86 extracellular domain) APLKIQAYFNETADLPCQFANSQNLSLSELVVFWQDQENLVLNEVYLGKEKFDSVDSKYMGRTSFDSDSWTLRLHNLQIKDKGIYQCIIHHKKPTGMVKIHEMNSELSVLA
Given back: 1e+06

Asked: Note, next up: CD86 mutant 1039 (ligand, Variant of the CD86 extracellular domain) APLKIQAYFNETADLPCQFANSQNLSLSELVVFWQDQENLVLNEVYLGKEKFDSVSSKYMGRTSFDSDSWTLRLHNLQIKDKGIYQCIIHHKKPSGMVKIHQMDSELSVLA
Given back: 1e+06

Asked: Note, next up: CD86 mutant 1047 (ligand, Variant of the CD86 extracellular domain) APLKIQAYFNETADLPCQFANSQNLSLSELVVFWQDQENLVLNEVYLGKEKFDSVDSKYMGRTSFDSDSWTLRLHNLQIKDKGIYQCIIHHKKPTGLVKIHEMNSELSVLA
Given back: 850000
